Target: T1, human CD33 extracellular domain (human, UniProt P20138 18-259)
T1 construct: soluble monomeric ECD; also called human CD33 ECD; hCD33
Experiment: SPR, Fab captured, 37C;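 further: fabs captured on an anti-Fab surface, soluble monomeric CD33 ECD flowed over at several concentrations, double-referenced curves fit to a 1:1 binding model, KD taken as koff/kon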
Examples of binders with documented kon follow.
Just the number please, in M⁻¹ s⁻¹, no unit attached.

{"binder": "ADI-10159 Fab (Fab, V domains shown, Fab fragment; also called Ab1; G59) VH: EVQLVESGGGLVQPGGSLRLSCAASGFTFSSYGMSWVRQAPGKGLEWVANIKQDGSEKYYVDSVKGRFTISRDNAKNSLYLQMNSLRAEDTAVYYCAREGGPYYDSSGYFVYYGMDVWGQGTTVTVSS VL: DIQMTQSPSTLSASVGDRVTITCRASQSISSWLAWYQQKPGKAPKLLIYDASSLESGVPSRFSGSGSGTEFTLTISSLQPDDFATYYCQQYESFPTFGGGTKVEIK", "kon, M⁻¹ s⁻¹": 429000}
{"binder": "ADI-11807 Fab (Fab, V domains shown, Fab fragment; also called Ab5; I07) VH: EVQLVESGGGLVQPGGSLRLSCAASGFTFGSYWMSWVRQAPGKGLEWVATIKQDGSEKSYVDSVKGRFTISRDNAKNSLYLQMNSLRAEDTAVYYCARPLNAGELDVWGQGTMVTVSS VL: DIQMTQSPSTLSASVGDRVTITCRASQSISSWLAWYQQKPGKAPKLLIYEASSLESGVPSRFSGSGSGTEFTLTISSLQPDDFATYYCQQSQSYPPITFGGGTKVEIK", "kon, M⁻¹ s⁻¹": "1.14e+06"}
{"binder": "ADI-10157 Fab (Fab, V domains shown, Fab fragment; also called Ab13) VH: QVQLQESGPGLVKPSETLSLTCTVSGGSISSYYWSWIRQPPGKGLEWIGSIYYSGSTNYNPSLKSRVTISVDTSKNQFSLKLSSVTAADTAVYYCARVGGVYSTIETYGMDVWGQGTTVTVSS VL: EIVMTQSPATLSVSPGERATLSCRASQSVSSNLAWYQQKPGQAPRLLIYGASTRATGIPARFSGSGSGTEFTLTISSLQSEDFAVYYCQQYTVYPPTFGGGTKVEIK", "kon, M⁻¹ s⁻¹": "2.82e+06"}
{"binder": "ADI-10164 Fab (Fab, V domains shown, Fab fragment; also called Ab18) VH: QVQLQESGPGLVKPSETLSLTCAVSGYSISSGYYWGWIRQPPGKGLEWIGSIYHSGSTNYNPSLKSRVTISVDTSKNQFSLKLSSVTAADTAVYYCARLPPWFGFSYFDLWGRGTLVTVSS VL: EIVLTQSPATLSLSPGERATLSCRASQSVSSYLAWYQQKPGQAPRLLIYDASNRATGIPARFSGSGSGTDFTLTISSLEPEDFAVYYCQQVDNYPPTFGGGTKVEIK", "kon, M⁻¹ s⁻¹": 319000}
{"binder": "ADI-11828 Fab (Fab, V domains shown, Fab fragment; also called Ab27) VH: EVQLVESGGGLVQPGGSLRLSCAASGFTFSSYWMSWVRQAPGKGLEWVANINQDGSEVYYVDSVKGRFTISRDNAKNSLYLQMNSLRAEDTAVYYCARDVGPGIAYQGHFDYWGQGTLVTVSS VL: DIQMTQSPSSLSASVGDRVTITCRASQSIYYYLNWYQQKPGKAPKLLIYAASSRQSGVPSRFSGSGSGTDFTLTISSLQPEDFATYYCQQVYDTPLTFGGGTKVEIK", "kon, M⁻¹ s⁻¹": "1.32e+06"}
{"binder": "ADI-10177 Fab (Fab, V domains shown, Fab fragment; also called Ab2) VH: EVQLVESGGGLVQPGGSLRLSCAASGFTFSSYWMSWVRQAPGKGLEWVANIKQDGSEKYYVDSVKGRFTISRDNAKNSLYLQMNSLRAEDTAVYYCARPLNAGELDVWGQGTMVTVSS VL: DIQMTQSPSTLSASVGDRVTITCRASQSISSWLAWYQQKPGKAPKLLIYEASSLESGVPSRFSGSGSGTEFTLTISSLQPDDFATYYCQQLESYPLTFGGGTKVEIK", "kon, M⁻¹ s⁻¹": 558000}

(Q) # query: kon of entry ADI-11830 Fab (Fab, V domains shown, Fab fragment; also called Ab9) VH: EVQLVESGGGLVQPGGSLRLSCAASGFTFSSYWMSWVRQAPGKGLEWVANINTDGSEVYYVDSVKGRFTISRDNAKNSLYLQMNSLRAEDTAVYYCARDVGPGIAYQGHFDYWGQGTLVTVSS VL: DIQMTQSPSSLSASVGDRVTITCRASQVIYSYLNWYQQKPGKAPKLLIYAASSLKSGVPSRFSGSGSGTDFTLTISSLQPEDFATYYCQQVYDTPLTFGGGTKVEIK
(A) 1.99e+06
